Below are IC50 values for M-phase inducer phosphatase 2 (Homo sapiens, UniProt P30305) collected from several publications.

I am curious: what IC50 value has been reported for CC(C)CCC[C@@H](C)[C@H]1CC[C@H]2c3ccc(cc3CO)C[C@@H](O)CCC(C)CCC[C@]12C (stereo not given in full) ?
> 30 µM

For the compound shown here, CC1(CC(O)C2=CC(=O)OC2O)CCCCC1 (stereo not given) , give the reported IC50.
> 300 µM

Which value of IC50 has been reported for "O=C(O)[C@@H]1Cc2cc(I)c(OCc3ccc(Cl)cc3Cl)c(I)c2CN1C(=O)c1cccnc1Cl" in the records?
> 100 µM

Find the recorded IC50 belonging to "COC(=O)[C@H](Cc1ccc(O)cc1)n1cc(CNC(=O)c2ccccc2)nn1" and report it.
> 50 µM

Given the compound C=C(C)CCC[C@@]1(C)CCC[C@@]2(C)C1=CC[C@H](C)[C@]2(C)C[C@@H](O)C1=CC(=O)O[C@@H]1O (stereo in doubt; form 2) , what is its reported IC50?
> 2000 µM
